assay-comment: Plasma pharmacokinetics of curcumin and THC during and after intravenous infusion of liposomal curcumin
Format: in vivo, Beagle dogs
particulars: both sexes, beagle, dog, in vivo, iv, 10 mg/kg, 2 hour infusion; + phosphoric acid; read-out: calculated AUC (observed)

| molecule | unit-spec | AUC |
| --- | --- | --- |
| COc1cc(CCC(=O)CC(=O)CCc2ccc(O)c(OC)c2)ccc1O [THC, tetrahydrocurcumin] | ng·h/mL | 3800 |

---

assay-comment: Plasma pharmacokinetics of curcumin and THC during and after intravenous infusion of liposomal curcumin
Format: in vivo, Beagle dogs
particulars: both sexes, Beagle, dog, in vivo, 10 mg/kg, 1.25 mg/kg/hr; 4 hr; mean±SE; read-out: [Plasma]
Protocol: The results and analysis for the study are presented for intravenous infusion dosing of a total dose of 10 mg/kg infused over a period of either 2 or 8 hours. Plasma levels of curcumin and its metabolite, THC were measured at timed intervals post-dosing. […] Bioanalysis was performed on two sets of samples, one set that was treated with phosphoric acid and one set that was not treated with phosphoric acid. […] Values that were below the limit of quantification were assigned a value of 0. […]
reported-metric: concentration at 4 hr (ng/mL)

| compound | recorded-number |
| --- | --- |
| COc1cc(CCC(=O)CC(=O)CCc2ccc(O)c(OC)c2)ccc1O [THC, tetrahydrocurcumin] | 77 |
